system: tetA promoter (PtetA)-lacZ reporter in E. coli KM3; assay type: cell-based; details: Table 4; chlorsulfuron 20 μg/ml (20 ppm); 48 hrs at 30° C.
experimental_endpoint: relative β-galactosidase activity, inducer Cs

{"molecule": "L1-38: library L1 hit, sulfonylurea-responsive TetR(B) variant (protein, Sulfonylurea responsive repressor L1-38) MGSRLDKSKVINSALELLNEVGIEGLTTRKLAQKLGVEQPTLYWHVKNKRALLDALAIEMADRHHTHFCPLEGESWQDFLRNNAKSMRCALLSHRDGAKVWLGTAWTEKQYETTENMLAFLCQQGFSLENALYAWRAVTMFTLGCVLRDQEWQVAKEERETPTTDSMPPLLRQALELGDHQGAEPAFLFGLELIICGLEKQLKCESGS", "recorded_measurement": 14.0}
